- system: T1, eGFPd-^CDD_(MlnB)
- T1 chain: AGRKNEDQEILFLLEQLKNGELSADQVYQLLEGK
- experiment: ITC; cell: 80 × 10^-6 M eGFPd-CDD_MlnB; syringe: 1.6 × 10^-3 M NDD_MlnC-mRFP, 20 injections of 2 µL; 20 mM Tris-HCl pH 7.9, 250 mM NaCl, 1 mM EDTA, 10% glycerol, 1 mM TCEP; 37 °C; single binding site model
- condition summary: both partners purified
Ends that are not written are not given here.
endpoint: Kd (µM)
The answer is to be given in µM; state only the numeric part.

Exam item: Give me measured Kd, please, for this binder: MQIKQILSLIEEQQMSPDAGLELIRTYRKEQMEKK (domain or fragment, also: fused to mRFP) [^NDD_(MlnC)-mRFP]
Marked response: 6.85
